// read-out Ki, gathered for Gastrin/cholecystokinin type B receptor (Mus musculus) from published studies
Answer in nM, number only, no unit symbol.

// worked examples, Ki included
# compound, system.name, recorded.endpoint, reading
data = [
    ("O=C(N[C@@H](CN[C@H](CO)Cc1ccccc1)Cc1c[nH]c2ccccc12)OC1C2CC3CC(C2)CC1C3 (stereo partly drawn)", "Gastrin/cholecystokinin type B receptor (Mus musculus)", "Ki", 11500),
    ("COC(=O)CC[C@H](NC(=O)[C@H](Cc1ccccc1)NC(=O)[C@@](C)(Cc1c[nH]c2ccccc12)NC(=O)OC1C2CC3CC(C2)CC1C3)C(=O)OC (stereo partly drawn)", "Gastrin/cholecystokinin type B receptor (Mus musculus)", "Ki", 110),
    ("CCOC(=O)c1cccc(NC(=O)NNc2nc3ccccc3c(=O)n2-c2ccc(Cl)c(Cl)c2)c1", "Gastrin/cholecystokinin type B receptor (Mus musculus)", "Ki", 53.4),
    ("Cc1ccc(S(=O)(=O)NC(=O)N[C@@H](c2ccccc2)[C@@H](NC(=O)Nc2ccc(Cl)cc2)c2ccccc2)cc1", "Gastrin/cholecystokinin type B receptor (Mus musculus)", "Ki", 93),
]

**Q:** Find the measured Ki of CC1(C(=O)NCCc2ccccc2)Cc2c([nH]c3ccccc23)CN1C(=O)OC1C2CC3CC(C2)CC1C3 (racemic) and report it.
**A:** 150

====

// read-out pKi, gathered for Gastrin/cholecystokinin type B receptor (Mus musculus, UniProt P56481) from published studies
Bear in mind: pKi is minus log10 of a mol/L concentration; give just that figure.

// worked examples, pKi included
# molecule, pKi
measured = [
    ("C[C@@](Cc1c[nH]c2ccccc12)(NC(=O)OC1C2CC3CC(C2)CC1C3)C(=O)NCCC(=O)N[C@H](Cc1ccccc1)C(=O)O (some centres unmarked)", 6.27),
    ("C[C@](Cc1c[nH]c2ccccc12)(NC(=O)OC1C2CC3CC(C2)CC1C3)C(=O)N[C@@H](Cc1ccccc1)C(=O)N[C@@H](CCC(=O)O)C(=O)O (some centres unmarked)", 5.82),
    ("C[C@@](Cc1c[nH]c2ccccc12)(NC(=O)OC1C2CC3CC(C2)CC1C3)C(=O)NCCC(=O)N[C@@H](Cc1ccccc1)C(=O)OCc1ccccc1 (some centres unmarked)", 5.92),
    ("Cc1ccc(NC(=O)N[C@H](c2ccccc2)[C@H](NC(=O)NS(=O)(=O)c2ccc(C)cc2)c2ccccc2)cc1 (relative stereo)", 6.75),
    ("O=C(NCCc1ccccc1)C1Cc2c([nH]c3ccccc23)CN1C(=O)OC1C2CC3CC(C2)CC1C3 (racemic)", 6.00),
]

**Q:** Look up and report pKi, with Gastrin/cholecystokinin type B receptor (Mus musculus, UniProt P56481) as system, for C[C@](CC(=O)OCc1ccccc1)(Cc1c[nH]c2ccccc12)NC(=O)OC1C2CC3CC(C2)CC1C3 (some centres unmarked)
**A:** 7.77

**Q:** Look up and report pKi, with Gastrin/cholecystokinin type B receptor (Mus musculus, UniProt P56481) as system, for CC(C)Oc1cccc(-n2c(NNC(=O)Nc3cccc(C#N)c3)nc3ccccc3c2=O)c1
**A:** 8.92

**Q:** Look up and report pKi, with Gastrin/cholecystokinin type B receptor (Mus musculus, UniProt P56481) as system, for COC[C@H]1CCCN1NC(=O)[C@@](C)(Cc1c[nH]c2ccccc12)NC(=O)OC1C2CC3CC(C2)CC1C3 (some centres unmarked)
**A:** 8.60

**Q:** Look up and report pKi, with Gastrin/cholecystokinin type B receptor (Mus musculus, UniProt P56481) as system, for CC(C)Oc1cccc(-n2c(NNC(=O)Nc3ccc(Br)cc3)nc3ccccc3c2=O)c1
**A:** 7.80

**Q:** Look up and report pKi, with Gastrin/cholecystokinin type B receptor (Mus musculus, UniProt P56481) as system, for C[C@](CNC(=O)c1ccccc1)(Cc1c[nH]c2ccccc12)NC(=O)OC1C2CC3CC(C2)CC1C3 (some centres unmarked)
**A:** 6.31

====

// read-out Ki, gathered for Gastrin/cholecystokinin type B receptor (Mus musculus, UniProt P56481) from published studies
Classes by Ki: zone 1: < 300 nM; zone 2: ≥ 300 nM and < 600 nM; zone 3: ≥ 600 nM

Worked examples, 5 molecules total:
# molecule, system.name, class
data = [
    ("CC(C)(C)OC(=O)N1Cc2[nH]c3ccccc3c2CC1C(=O)NC(Cc1ccccc1)C(=O)O (stereo not shown)", "Gastrin/cholecystokinin type B receptor (Mus musculus, UniProt P56481)", "zone 3"),
    ("CN(C)c1cccc(-n2c(NNC(=O)Nc3cccc(C#N)c3)nc3ccccc3c2=O)c1", "Gastrin/cholecystokinin type B receptor (Mus musculus, UniProt P56481)", "zone 1"),
    ("Cc1ccc(S(=O)(=O)NC(=O)N[C@H](c2ccccc2)[C@H](NC(=O)Nc2ccc(C(F)(F)F)cc2)c2ccccc2)cc1 (relative stereo)", "Gastrin/cholecystokinin type B receptor (Mus musculus, UniProt P56481)", "zone 1"),
    ("CC1(C(=O)NCC(OC(=O)CCC(=O)O)c2ccccc2)Cc2c([nH]c3ccccc23)CN1C(=O)OC1C2CC3CC(C2)CC1C3 (stereo not shown)", "Gastrin/cholecystokinin type B receptor (Mus musculus, UniProt P56481)", "zone 3"),
    ("C[C@](Cc1c[nH]c2ccccc12)(NC(=O)OC1C2CC3CC(C2)CC1C3)C(=O)N[C@@H](Cc1ccccc1)C(=O)NCCC(=O)O (stereo partly shown)", "Gastrin/cholecystokinin type B receptor (Mus musculus, UniProt P56481)", "zone 1"),
]

**Q:** Each molecule maps to one class by Ki. Which class for CC1(C(=O)N[C@@H](CO)[C@@H](O)c2ccccc2)Cc2c([nH]c3ccccc23)CN1C(=O)OC1C2CC3CC(C2)CC1C3 (stereo partly shown) ?
**A:** zone 3

**Q:** Each molecule maps to one class by Ki. Which class for C[C@@](Cc1c[nH]c2ccccc12)(NC(=O)OC1C2CC3CC(C2)CC1C3)C(=O)NCCC(=O)N[C@@H](Cc1ccccc1)C(=O)O (stereo partly shown) ?
**A:** zone 2

**Q:** Each molecule maps to one class by Ki. Which class for C[C@](CC(=O)N[C@H](C(=O)O)c1ccccc1)(Cc1c[nH]c2ccccc12)NC(=O)OC1C2CC3CC(C2)CC1C3 (stereo partly shown) ?
**A:** zone 3

**Q:** Each molecule maps to one class by Ki. Which class for CC(=O)N(C[C@@](C)(Cc1c[nH]c2ccccc12)NC(=O)OC1C2CC3CC(C2)CC1C3)[C@H](CO)Cc1ccccc1 (stereo partly shown) ?
**A:** zone 2

**Q:** Each molecule maps to one class by Ki. Which class for CC1(C(=O)NCC(NC(=O)CCC(=O)O)c2ccccc2)Cc2c([nH]c3ccccc23)CN1C(=O)OC1C2CC3CC(C2)CC1C3 (stereo not shown) ?
**A:** zone 2

**Q:** Each molecule maps to one class by Ki. Which class for COC(=O)[C@@H](Cc1ccccc1)NC(=O)CCNC(=O)[C@@](C)(Cc1c[nH]c2ccccc12)NC(=O)OC1C2CC3CC(C2)CC1C3 (stereo partly shown) ?
**A:** zone 1

**Q:** Each molecule maps to one class by Ki. Which class for CC(=O)OC[C@H](Cc1ccccc1)NC[C@@](C)(Cc1c[nH]c2ccccc12)NC(=O)OC1C2CC3CC(C2)CC1C3 (relative stereo) ?
**A:** zone 2
